The reported measurements were obtained from ChEMBL document CHEMBL1201862.

tested on: CAKI-1; assay: NCI tumour cell line growth inhibition, 48 h
Active and inactive are the calls of the source. Rule as the data show it: active = GI50 up to about 1.1 µM and inactive = higher.
Listed here are molecules together with their documented GI50.

[
  {
    "MOLECULE": "CN(c1c(Cl)cccc1Cl)S(=O)(=O)c1ccccc1[N+](=O)[O-]",
    "GI50": "> 100 µM (inactive)"
  },
  {
    "MOLECULE": "CC(=O)O[C@H]1CCC2[C@@H]3CC[C@]4(C)CC(=O)C=C[C@]4(C)C3CC[C@@]21C (some centres not stated)",
    "GI50": "83.4 µM (inactive)"
  },
  {
    "MOLECULE": "CN1C/C(=C\\c2ccco2)c2nc(N)nc(-c3ccco3)c2C1",
    "GI50": "> 100 µM (inactive)"
  },
  {
    "MOLECULE": "N#Cc1nc(Nc2cccc3ccccc23)sc1N",
    "GI50": "28.7 µM (inactive)"
  },
  {
    "MOLECULE": "COc1ccc2nc3cc(Cl)ccc3c(Sc3ccccc3[N+](=O)[O-])c2c1",
    "GI50": "> 100 µM (inactive)"
  },
  {
    "MOLECULE": "NC(=O)CCSC(CC(=O)c1ccc(Cl)cc1)c1ccc(Cl)cc1 (configuration not stated)",
    "GI50": "12.4 µM (inactive)"
  },
  {
    "MOLECULE": "O=C(Cn1c2ccc(Br)cc2c2nc3ccccc3nc21)N1CCOCC1",
    "GI50": "> 100 µM (inactive)"
  },
  {
    "MOLECULE": "COc1cccc(-c2ccc3c4c2O[C@H]2c5[nH]c6ccccc6c5C[C@@]5(O)[C@@H](C3)N(CC3CC3)CC[C@]425)c1",
    "GI50": "2.1 µM (inactive)"
  },
  {
    "MOLECULE": "Cc1cnc(SCCN2CCN(C)CC2)nc1-c1cc2ccccc2s1",
    "GI50": "1.51 µM (inactive)"
  },
  {
    "MOLECULE": "COc1ccc(OC)c(C(=O)/C=C/c2cc(O)c(O)cc2F)c1",
    "GI50": "4.71 µM (inactive)"
  },
  {
    "MOLECULE": "CCN1CCCC(Nc2cc(C)nc(NC(=N)Nc3ccc(Cl)c(Cl)c3)n2)C1 (configuration not stated)",
    "GI50": "1.56 µM (inactive)"
  },
  {
    "MOLECULE": "C=C1C(=O)OC2CC(C)C3C=CC(=O)C3CC12 (configuration not stated)",
    "GI50": "2.17 µM (inactive)"
  },
  {
    "MOLECULE": "NNC(=O)c1ccccc1NC(=O)/C(=C/c1ccccc1)NC(=O)c1ccccc1",
    "GI50": "> 100 µM (inactive)"
  },
  {
    "MOLECULE": "COc1cc2ccnc3c(=C(SC)SC)c(=O)c(c1OC)c23",
    "GI50": "10.3 µM (inactive)"
  },
  {
    "MOLECULE": "Cc1nn(C(=O)Cc2ccccc2)c2c1C(c1ccccc1)SC(=N)N2 (configuration not stated)",
    "GI50": "> 100 µM (inactive)"
  },
  {
    "MOLECULE": "COC(=O)[C@H](C)NC(=O)[C@H](CSC)N1C(=O)N[C@@H](C(C)C)C1=O",
    "GI50": "> 100 µM (inactive)"
  },
  {
    "MOLECULE": "O=C(O)c1cccc(/N=N/c2c(S(=O)(=O)O)ccc3c2C(=O)c2ccccc2C3=O)c1O",
    "GI50": "> 100 µM (inactive)"
  },
  {
    "MOLECULE": "O=C(CCCN1CCC2(CC1)CC(=O)N(N1CCOCC1)C2=O)c1ccccc1",
    "GI50": "> 100 µM (inactive)"
  },
  {
    "MOLECULE": "S=C1CSc2c(cnc3ccccc23)N1",
    "GI50": "78.7 µM (inactive)"
  },
  {
    "MOLECULE": "CN(C)Cc1cc(/N=N/c2ccc(Cl)cc2)ccc1O",
    "GI50": "15.4 µM (inactive)"
  },
  {
    "MOLECULE": "C[C@]12CCC3[C@@H](CC[C@@H]4c5nonc5CC[C@]34C)C1CC[C@@H]2O (some centres not stated)",
    "GI50": "19.8 µM (inactive)"
  },
  {
    "MOLECULE": "CCO[C@@]12CCC3CC4CC[C@@](OCC)(O1)C4C32 (some centres not stated)",
    "GI50": "> 100 µM (inactive)"
  }
]
